Protocol: Clearance in ICR mouse at 2 mg/kg, iv measured upto 24 hrs by LC-MS/MS analysis
Assay type: ADME, organism-based
Experimental Parameters: in vivo
Assay Readout: clearance (mL/min/kg)
Numeric only. Scale: mL/min/kg

Short answer for C[C@H]1CC2(CCN(c3ccc(C(=O)N4CCN(C5CN(c6ccc7c(c6)C(=O)N(C6CCC(=O)NC6=O)C7=O)C5)CC4)cc3)CC2)CN1c1ccc(C#N)c(Cl)c1 (stereo partly specified) : clearance was 3.7

====

System Tested: Androgen receptor (Homo sapiens) (UniProt P10275)
Sequence (P10275 whole entry): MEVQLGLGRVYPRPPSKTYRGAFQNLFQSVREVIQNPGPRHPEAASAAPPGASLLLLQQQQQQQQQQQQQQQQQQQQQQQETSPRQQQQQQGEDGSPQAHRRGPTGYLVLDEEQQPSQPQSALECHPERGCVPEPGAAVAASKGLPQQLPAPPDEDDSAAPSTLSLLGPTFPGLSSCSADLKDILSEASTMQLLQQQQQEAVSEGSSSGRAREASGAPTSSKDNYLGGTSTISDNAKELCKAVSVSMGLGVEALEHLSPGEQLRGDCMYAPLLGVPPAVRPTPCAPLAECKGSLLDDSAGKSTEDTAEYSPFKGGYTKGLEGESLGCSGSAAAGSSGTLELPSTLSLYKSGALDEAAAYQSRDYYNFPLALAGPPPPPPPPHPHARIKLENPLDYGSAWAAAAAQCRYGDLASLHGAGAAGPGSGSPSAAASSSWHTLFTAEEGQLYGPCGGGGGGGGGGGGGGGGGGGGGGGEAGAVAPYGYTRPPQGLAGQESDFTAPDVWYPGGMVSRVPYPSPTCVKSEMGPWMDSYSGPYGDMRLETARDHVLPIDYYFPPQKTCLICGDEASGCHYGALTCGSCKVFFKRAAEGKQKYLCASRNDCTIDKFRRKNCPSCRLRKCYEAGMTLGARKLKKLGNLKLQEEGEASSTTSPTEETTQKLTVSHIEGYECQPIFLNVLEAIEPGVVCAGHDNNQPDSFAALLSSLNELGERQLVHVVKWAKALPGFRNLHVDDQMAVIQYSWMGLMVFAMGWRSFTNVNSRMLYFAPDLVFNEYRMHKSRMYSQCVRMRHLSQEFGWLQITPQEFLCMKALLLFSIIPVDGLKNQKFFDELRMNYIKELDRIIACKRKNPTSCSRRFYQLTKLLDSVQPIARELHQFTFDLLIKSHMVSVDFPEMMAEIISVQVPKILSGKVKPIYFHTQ
Protocol: Induction of androgen receptor degradation in human VCaP cells at 0.01 uM after 24 hrs by Western blotting analysis relative to control
Format: cell-based
Assay Readout: Activity (%)
Lab book: enter the figure in %, no units written.

Answered examples (6):
>  <Compound>
N#Cc1ccc(N2CCC3(CCN(c4ccc(C(=O)N5CCN(C6CCN(c7ccc8c(c7)C(=O)N(C7CCC(=O)NC7=O)C8=O)CC6)CC5)cc4)CC3)C2)cc1Cl (centres undefined)

>  <Unit Info>
%

>  <Activity>
24

$$$$
>  <Compound>
N#Cc1ccc(N2CCC3(CCN(c4ccc(C(=O)N5CC6CC(C5)CN(C5CCN(c7ccc8c(c7)C(=O)N(C7CCC(=O)NC7=O)C8=O)CC5)C6)cc4)CC3)C2)cc1Cl (centres undefined)

>  <Unit Info>
%

>  <Activity>
23

$$$$
>  <Compound>
N#Cc1ccc(N2CCC3(CCN(c4ccc(C(=O)N5CCN(CC6CN(c7ccc8c(c7)C(=O)N(C7CCC(=O)NC7=O)C8=O)C6)CC5)cc4)CC3)C2)cc1Cl (centres undefined)

>  <Unit Info>
%

>  <Activity>
30

$$$$
>  <Compound>
C[C@H]1CC2(CCN(c3ccc(C(=O)N4CCC(N5CCN(c6ccc7c(c6)C(=O)N(C6CCC(=O)NC6=O)C7=O)CC5)CC4)cc3)CC2)CN1c1ccc(C#N)c(Cl)c1 (some centres undefined)

>  <Unit Info>
%

>  <Activity>
78

$$$$
>  <Compound>
C[C@H]1CC2(CCN(c3ccc(C(=O)N4CCC(CN5CCN(c6ccc7c(c6)C(=O)N(C6CCC(=O)NC6=O)C7=O)CC5)CC4)cc3)CC2)CN1c1ccc(C#N)c(Cl)c1 (some centres undefined)

>  <Unit Info>
%

>  <Activity>
81

$$$$
>  <Compound>
C[C@H]1CC2(CCN(c3ccc(C(=O)N4CC5(C4)CN(c4ccc6c(c4)C(=O)N(C4CCC(=O)NC4=O)C6=O)C5)cc3)CC2)CN1c1ccc(C#N)c(Cl)c1 (some centres undefined)

>  <Unit Info>
%

>  <Activity>
79

$$$$

Entry C[C@H]1N(c2ccc(C#N)c(Cl)c2)CCC12CCN(c1ccc(C(=O)N3CCN(C4CN(c5ccc6c(c5)C(=O)N(C5CCC(=O)NC5=O)C6=O)C4)CC3)cc1)CC2 (some centres undefined) ; Activity = 46

C[C@H]1CC2(CCN(c3ccc(C(=O)N4C[C@H]5C[C@@H]4CN5C4CN(c5ccc6c(c5)C(=O)N(C5CCC(=O)NC5=O)C6=O)C4)cc3)CC2)CN1c1ccc(C#N)c(Cl)c1 (some centres undefined) has a reported Activity of 54

Item: N#Cc1ccc(N2CCC3(CCN(c4ccc(C(=O)N5CC6(C5)CN(C5CN(c7ccc8c(c7)C(=O)N(C7CCC(=O)NC7=O)C8=O)C5)C6)cc4)CC3)C2)cc1Cl (centres undefined) | Activity: 22

Please fill in: Activity reported for N#Cc1ccc(N2CCC3(CCN(c4ccc(C(=O)N5CCC6(C5)CN(C5CCN(c7ccc8c(c7)C(=O)N(C7CCC(=O)NC7=O)C8=O)CC5)C6)cc4)CC3)C2)cc1Cl (centres undefined) = 20

Data point: C[C@H]1CC2(CCN(c3ccc(C(=O)N4CCC(C5CN(c6ccc7c(c6)C(=O)N(C6CCC(=O)NC6=O)C7=O)C5)CC4)cc3)CC2)CN1c1ccc(C#N)c(Cl)c1 (some centres undefined) ; Activity = 12

Lookup result for N#Cc1ccc(N2CCC3(CCN(c4ccc(C(=O)N5CCCN(C6CN(c7ccc8c(c7)C(=O)N(C7CCC(=O)NC7=O)C8=O)C6)CC5)cc4)CC3)C2)cc1Cl (centres undefined) ; measured Activity: 39

So for C[C@H]1CC2(CCN(c3ccc(C(=O)N4CCN(C5(C#N)CN(c6ccc7c(c6)C(=O)N(C6CCC(=O)NC6=O)C7=O)C5)CC4)cc3)CC2)CN1c1ccc(C#N)c(Cl)c1 (some centres undefined) , the logged Activity turned out to be 81

Measured Activity of N#Cc1ccc(N2CCC3(CCN(c4ccc(C(=O)N5CCN(CC6CCN(c7ccc8c(c7)C(=O)N(C7CCC(=O)NC7=O)C8=O)CC6)CC5)cc4)CC3)C2)cc1Cl (centres undefined) : 24
